- Test system: Diabrotica balteata (Corn Rootworm)
- experimental_details: Diabrotica balteata seed treatment test, larval mortality
- Type: in vivo
- test_conditions: treated corn seeds, 1 mg/seed, L3 larvae, 6 days incubation
This section presents compounds with their documented % Larval mortality values.
Lab book: enter the figure in %, no units written.

Worked set:
CCN1OCC(NC(=O)c2ccc(C3=NOC(c4cc(F)cc(Cl)c4)(C(F)(F)F)C3)cc2C)C1=O (mixture of isomers)
92
CCN1OC[C@@H](NC(=O)c2ccc(C3=NO[C@@](c4cc(Cl)cc(Br)c4)(C(F)(F)F)C3)cc2C)C1=O
100

Lab entry: Diabrotica balteata (Corn Rootworm) assay, compound `Cc1cc(C2=NO[C@@](c3cc(Cl)cc(Cl)c3)(C(F)(F)F)C2)ccc1C(=O)N[C@@H]1CON(CC(F)F)C1=O` , % Larval mortality = 100
